Each entry below lists one item and its recorded IC50 value.
study target: DYRK2 (Homo sapiens)
Construct: purchased Carna Biosciences, Inc. 04-132
Sequence (Q92630 74-601 limits assumed): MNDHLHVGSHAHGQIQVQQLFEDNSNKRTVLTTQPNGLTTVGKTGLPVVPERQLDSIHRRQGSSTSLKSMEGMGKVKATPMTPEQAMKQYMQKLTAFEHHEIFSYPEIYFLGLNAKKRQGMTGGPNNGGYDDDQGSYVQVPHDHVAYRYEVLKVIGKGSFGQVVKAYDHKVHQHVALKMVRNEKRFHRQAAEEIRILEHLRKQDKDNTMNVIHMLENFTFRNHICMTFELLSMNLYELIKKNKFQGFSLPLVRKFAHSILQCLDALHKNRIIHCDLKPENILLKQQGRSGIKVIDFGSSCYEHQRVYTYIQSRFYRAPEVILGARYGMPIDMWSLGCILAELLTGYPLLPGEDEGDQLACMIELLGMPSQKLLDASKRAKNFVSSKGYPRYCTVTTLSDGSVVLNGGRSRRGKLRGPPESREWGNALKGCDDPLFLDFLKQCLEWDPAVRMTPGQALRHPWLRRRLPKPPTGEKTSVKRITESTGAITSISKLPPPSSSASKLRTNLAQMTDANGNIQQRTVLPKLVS
experiment description: Inhibition test on activity of DYRK family, mobility shift assay (MSA): DYRK2
Type: biochemical
run conditions: MSA, FITC-labeled DYRKtide peptide, ATP 40 μM; read-out: Inhibitory activity DYRK 2 (IC50 class)

In [3]: df
Out[3]:
                                   compound  readout_name  reported_value
0  O=C1N[C@H]2CNCC[C@H]2N1c1nc2c3c(ccc2s1)OCO3          IC50     0.1 to 1 µM

Quick one: IC50 for O=C1NC2CCN(C3CC3)CC2N1c1nc2c3c(ccc2s1)OCO3 (stereo not shown) ?
≥ 1 µM

# input compound: CN1CC[C@@H]2[C@H](C1)NC(=O)N2c1nc2c3c(ccc2s1)OCC3 (relative stereo) ; wanted: its IC50
0.1 to 1 µM

// lookup IC50 for CN1CC[C@@H]2[C@H](C1)NC(=O)N2c1nc2c3c(ccc2s1)OCCO3 (racemic)
≥ 1 µM

---

study target: DYRK3 (Homo sapiens, UniProt O43781)
Construct: purchased Carna Biosciences, Inc. 04-133
Sequence (O43781 1-568 isoform O43781-2): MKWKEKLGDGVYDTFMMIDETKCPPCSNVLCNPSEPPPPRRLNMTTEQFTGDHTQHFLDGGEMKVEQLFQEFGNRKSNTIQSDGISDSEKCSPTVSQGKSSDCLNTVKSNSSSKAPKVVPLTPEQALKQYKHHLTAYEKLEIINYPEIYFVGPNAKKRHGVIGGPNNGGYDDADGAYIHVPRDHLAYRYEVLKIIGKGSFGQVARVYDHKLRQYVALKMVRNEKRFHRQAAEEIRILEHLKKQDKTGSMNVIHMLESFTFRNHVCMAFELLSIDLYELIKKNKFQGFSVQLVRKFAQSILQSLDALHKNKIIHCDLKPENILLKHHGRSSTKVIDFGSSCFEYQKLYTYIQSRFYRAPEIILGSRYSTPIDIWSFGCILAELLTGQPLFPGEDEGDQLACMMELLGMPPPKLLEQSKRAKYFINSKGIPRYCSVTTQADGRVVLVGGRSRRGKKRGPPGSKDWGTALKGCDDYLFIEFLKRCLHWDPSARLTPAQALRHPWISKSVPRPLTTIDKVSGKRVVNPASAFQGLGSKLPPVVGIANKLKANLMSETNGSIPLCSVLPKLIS
experiment description: Inhibition test on activity of DYRK family, mobility shift assay (MSA): DYRK3
Format: biochemical
run conditions: MSA, FITC-labeled DYRKtide peptide, ATP 20 μM; read-out: Inhibitory activity DYRK 3 (IC50 class)
// reported IC50 for each item listed

In [3]: df
Out[3]:
                                   molecule  reported_value
0  COCCN1CC[C@@H]2NC(=O)N(c3nc4c5c(ccc4s3)OCC5)[C@@H]2C1 (relative stereo) [Example 8]       ≥ 1000 nM

Endpoint output: IC50 of O=C1NC2CNCC2N1c1nc2c3c(ccc2s1)OCC3 (stereo not shown) [Example 3] . Value?
100 to 1000 nM

Entry O=C1N[C@H]2COC(F)C[C@H]2N1c1nc2c3c(ccc2s1)OCC3 (stereo partly shown) [Example 151] has what IC50?
10 to 100 nM

Please give the measured IC50 for this molecule: CC(=O)N1CC[C@@H]2NC(=O)N(c3nc4c5c(ccc4s3)OCC5)[C@@H]2C1 (relative stereo) [Example 20]
> 1000 nM

---

study target: DYRK3 (Homo sapiens)
Construct: purchased Carna Biosciences, Inc. 04-133
experiment description: Inhibition test on activity of DYRK family, mobility shift assay (MSA): DYRK3
Type: biochemical
run conditions: MSA, FITC-labeled DYRKtide peptide, ATP 20 μM; read-out: Inhibitory activity DYRK 3 (IC50 class)
IC50 values for the compounds below.

Example results:
>>> print(df.to_string())
                                   compound  reported_value
0  O=C1N[C@@H]2[C@@H](CCNC23CC3)N1c1nc2c3c(ccc2s1)OCC3  100 to 1000 nM
1  N#CC[C@H]1OC[C@@H]2NC(=O)N(c3nc4c5c(ccc4s3)OCC5)[C@@H]21  100 to 1000 nM
2  C[C@@H]1C[C@@H]2[C@H](CO1)NC(=O)N2c1nc2c3c(ccc2s1)OCC3       ≥ 1000 nM

API: value(readout=IC50, system=DYRK3 (Homo sapiens)) for record O=C1N[C@@H]2CO[C@H](CO)[C@@H]2N1c1nc2c3c(ccc2s1)OCC3
≥ 1000 nM
